- measurement.protocol: drug combination growth inhibition, ovarian cancer – cell-based, oncology-focused library, rucaparib conditional, profiling panel (AID 1508598)
- experimental.conditions: patient-derived ovarian cancer cells, CellTiter-Glo viability, 144 h; at 0.00488 µM; OCI-P5x cells; without rucaparib
Active and inactive are the calls of the source.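 The calls were made as follows: active = normalized viability below 100% at a tested concentration; inactive = the rest.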
Classes used: t = active, f = inactive

compound | class.name
CC(C)C[C@H](NC(=O)CNC(=O)c1cc(Cl)ccc1Cl)B(O)O | f
Cc1ccc2c(=O)c3cccc(CC(=O)O)c3oc2c1C | f
Cc1ccc([C@@H]2O[C@H](CO)[C@@H](O)[C@H](O)[C@H]2O)cc1Cc1ccc(-c2ccc(F)cc2)s1 | t
COc1cc(OC)c(/C=C/S(=O)(=O)Cc2ccc(OC)c(NCC(=O)O)c2)c(OC)c1 | f
COc1ccc(-n2c(SCCCN3C(=O)c4cccc5cccc(c45)C3=O)nnc2-c2ccncc2)cc1 | f
CN(C)Cc1ccc(-c2nc3cccc4c3n2CCNC4=O)cc1 | f
CCOc1cc2ncc(C#N)c(Nc3ccc(F)c(Cl)c3)c2cc1NC(=O)/C=C/CN(C)C | f
Cc1ccc(F)c(NC(=O)Nc2ccc(-c3cccc4[nH]nc(N)c34)cc2)c1 | t
Cn1cc(-c2ccc3nnc(C(F)(F)c4ccc5ncccc5c4)n3n2)cn1 | f
CN(C)C/C=C/C(=O)Nc1cc2c(Nc3ccc(F)c(Cl)c3)ncnc2cc1O[C@H]1CCOC1 | t
Cc1cn(-c2cc(NC(=O)c3ccc(C)c(Nc4nccc(-c5cccnc5)n4)c3)cc(C(F)(F)F)c2)cn1 | t
Nc1ccc(C(=O)Nc2cccc(-c3nc(N4CCOCC4)c4oc5ncccc5c4n3)c2)cn1 | t
Cc1cnc(Nc2ccc(OCCN3CCCC3)cc2)nc1Nc1cccc(S(=O)(=O)NC(C)(C)C)c1 | f
Nc1nccc(Oc2ccc(NC(=O)c3c[nH]cc(-c4ccc(F)cc4)c3=O)cc2F)c1Cl | f
CNC(=O)c1cc(COc2nnc(Nc3ccc(Cl)cc3)c3ccoc23)ccn1 | f
CN1CCC(CNc2ccc3ncc(-c4cccc(OC(F)(F)F)c4)n3n2)CC1 | t
Cc1cc(Nc2cc(N3CCN(C)CC3)nc(/C=C/c3ccccc3)n2)n[nH]1 | f

====

- Test system: Aerobactin synthetase IucA (Klebsiella pneumoniae)
- measurement.protocol: inhibition of K. pneumoniae IucA enzyme – biochemical, Tocris library, absorbance (AID 1345561);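 also: 100% = enzyme without compound and 0% = no enzyme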
- experimental.conditions: purified IucA enzyme assay, absorbance (OD) read-out; stronger effect = lower value; concentration not given here

compound | value.unit | remaining activity
Cn1cc(/C=C2/C(=O)Nc3cccnc32)c2ccccc21 | % | 89.8
O/N=C/c1ccc(-c2ccc(O)c(F)c2)c(Cl)c1O | % | 117
O=C(Nc1ccc(C(F)(F)F)cn1)N1CCN(c2ncccc2C(F)(F)F)CC1 | % | 86.8
NC(N)=Nc1ccc(Cl)cc1 | % | 81.8
C[N+](C)(C)CCCCCNCC12CC3CC(CC(C3)C1)C2 | % | 117
N=C(CC(O)COc1ccccc1-c1ccccc1)N1CCCCC1 (stereo not drawn) | % | 113
Brc1cc2c(cc1[C@H]1Nc3ccccc3[C@H]3C=CC[C@H]31)OCO2 (racemic) | % | 123
CCCCC1CCC(c2nc(-c3ccncc3)no2)CC1 (stereo not drawn) | % | 122
CCCC[P+](CCCC)(CCCC)Cc1ccc(NC(=O)[C@@H](Cc2ccc3ccccc3c2)NC(=NC2CCCCC2)NC2CCCCC2)cc1 | % | 117
N#C/C(=C\c1ccc(O)c(O)c1)C(=O)Nc1ccccc1 | % | 117
COC(=O)C1=C(C)NC(C)=C([N+](=O)[O-])[C@H]1c1ccccc1C(F)(F)F | % | 113
COC(=O)/C=C/c1cccc(N(Cc2ccc(-c3ccc(N(C)C)cc3)cc2)C(=O)C2CCCCC2)c1 | % | 97.3
C#CCN1C(C)=C(C(=O)OC)C(c2cccc([N+](=O)[O-])c2)C(C(=O)OCC)=C1C (stereo not drawn) | % | 122
O=[N+]([O-])c1cc2nc(O)c(O)nc2cc1[N+](=O)[O-] | % | 103
N#C/C(=C\c1ccc(O)c(O)c1)C(=O)NCCCCc1ccccc1 | % | 95.7
N[C@H]1CCN(O)C1=O | % | 122
COc1ccc(-c2ccc(=N)n(CCCC(=O)O)n2)cc1 | % | 122
N[C@@H](Cn1ccc(=O)n(Cc2ccccc2C(=O)O)c1=O)C(=O)O | % | 102
NS(=O)(=O)c1cccc2c1c([N+](=O)[O-])cc1nc(O)c(O)nc12 | % | 120
Cn1ccc2cc(NC(=O)Nc3cccnc3)ccc21 | % | 111
COc1cc(N)c(Cl)cc1C(=O)CCC1CCN(CCNS(C)(=O)=O)CC1 | % | 97.5
C[C@H]([C@@H](O)c1ccc(O)cc1)N1CCC(Cc2ccccc2)CC1 (racemic) | % | 93.2
O=C(O)c1ccc(-c2ccc3cc(C45CC6CC(CC(C6)C4)C5)c(O)cc3c2)cc1 | % | 87.5
O=C1c2ccccc2C(Cc2ccnc(F)c2)(Cc2ccnc(F)c2)c2ccccc21 | % | 102
COc1ccc(C2CC(c3c(O)cc(C)oc3=O)=NCCS2)c(OC)c1 (stereo not drawn) | % | 98.6
COc1ccc2cccc(N3CCN(CCNC(=O)c4ccc(F)cc4)CC3)c2c1 | % | 104
COC(=O)[C@H]1C2C[C@H]3c4[nH]c5ccccc5c4CCN3C[C@H]2CC[C@@H]1O (stereo partly drawn) | % | 106
CCN(CC)c1ccc(/C=N/NC(=O)c2ccc(O)cc2)cc1 | % | 100
COc1ccc(Nc2ncnc3ccc(OC)cc23)cc1 | % | 108
O=C(O)Cc1cc2ccccc2nc1C(=O)O | % | 129
COc1ccc(NC(=O)c2ccc(-c3ccc(-c4noc(C)n4)cc3C)cc2)cc1OCCN(C)C | % | 128
Cc1cc(C)c(N(Cc2ccccc2)S(=O)(=O)c2ccc(OCCNC(=O)c3cc4ccccc4o3)cc2)c(C(=O)NO)c1 | % | 101
N#C/C(=C\c1ccc(O)c(O)c1)C(N)=O | % | 122
CN(C)C(=O)n1nnnc1Cc1ccc(-c2ccccc2)cc1 | % | 82
Cc1ccc(Sc2cncc3sc(C(N)=O)cc23)cc1 | % | 99.8
NC(=NC1C2CC3CC(C2)CC1C3)Nc1ccc(I)cc1 (stereo not drawn) | % | 126
O=C(CCCCCN1C(=O)c2cccc3cccc(c23)C1=O)NO | % | 87.2
Nc1nc(-c2ccc(Cl)c(Cl)c2)c(-c2ccncc2)s1 | % | 110
COc1cc(N)c(Cl)cc1C(=O)OCCCN1CCCCC1 | % | 102
C[C@H](NC[C@H](O)CP(=O)(O)Cc1ccccc1)c1ccc(Cl)c(Cl)c1 | % | 111
Nc1ccc(-c2cccc3c(=O)cc(N4CCOCC4)oc23)cc1 | % | 104
COC(=O)[C@H](Cc1ccc([N+](=O)[O-])cc1)NC(=O)c1cccc2ccccc12 | % | 101
C[C@@]1(O)[C@H](O)[C@@H](CO)O[C@H]1n1cnc2c(NC3CCCC3)nc(Cl)nc21 | % | 118
